Values from PubChem BioAssay (NCI)

tested on: K-562 leukemia; experiment: NCI tumour cell line growth inhibition, 48 h
RECORDED_METRIC: TGI

Take a look at these entries with their results.
COC(=O)[C@H]1C[C@H]1NC(=O)C(CC(=O)OCc1ccccc1)NC(=O)OCc1ccccc1 (some centres not stated) :: > 100 µM
Cc1n[nH]c(=O)n1/N=C/c1cccs1 :: > 100 µM
C=CC(C)(O)/C=C/C=C(\C)C(CC1OC1(C)C)OC(=O)/C(C)=C\C (configuration not stated) :: > 100 µM
CCC1(CCSC(=N)N)C(=O)NC(=O)NC1=O :: > 100 µM
COc1ccc(C(=O)C(C(=O)C(=O)Nc2ccc(Cl)c(Cl)c2)c2ccc(OC)cc2)cc1 (configuration not stated) :: > 100 µM
CC(=O)C1=C(C)Cn2c(=O)c3ccccc3c(=O)n2C1 :: > 100 µM
COc1ccc(C2=NN(C(=O)c3cc(OC)c(OC)c(OC)c3)C(c3ccc(Cl)cc3)C2)cc1OC (configuration not stated) :: > 100 µM
Cn1c(O)c(C(/C=C/c2ccccc2)=NCCN=C(/C=C/c2ccccc2)c2c(O)n(C)c(=O)n(C)c2=O)c(=O)n(C)c1=O :: > 50 µM
COc1cc(/C=C/C(=O)OCCc2ccccc2)ccc1O :: 85.4 µM
COc1cc(N/N=C/C#N)cc(OC)c1OC :: > 10 µM

Query: What value of TGI has been recorded for this entry: CC(C)OC(=O)C1=C(O)c2ccccc2S(=O)(=O)N1
Response: > 100 µM

Query: Further, for Fc1ccc(OCc2nc3cc(C(F)(F)F)ccc3nc2-c2ccccc2)cc1 ?
Response: > 59 µM

Query: And CSC1=NC(C(N)=O)C(N)N1C (configuration not stated) ?
Response: > 100 µM

====

Item-by-item account of TGI
test system: KM20L2 colon; experiment: NCI tumour cell line growth inhibition, 48 h

Nc1nncc2c1ccn2C1OC(CO)C(O)C1O (stereo not given) :: > 100 µM
CC1(C)CCc2cc3c(cc2O1)OCC1c2cc4c(cc2OC31)OCO4 (stereo not given) :: > 100 µM

Query: TGI; subject: Cc1ccc(S(=O)(=O)N/N=c2\c(C)c(C3=NS(=O)(=O)c4cc(S(N)(=O)=O)c(Cl)cc4N3)oc3c(Cl)cc(Cl)cc23)cc1
Response: > 100 µM

Query: Repeat for the following compound: O=c1c2ccccc2n2n1CC(O)C2 (stereo not given)
Response: > 100 µM

Query: # iterate: CCOC(=O)Nc1cc2c(c(N)n1)N=C(c1ccccc1)[C@H](C)N2
Response: < 0.0001 µM

====

Below, each entry is listed alongside its reported TGI.
system: OVCAR-8 ovarian; test: NCI tumour cell line growth inhibition, 48 h

Example entries and their recorded answers appear below.
O=C(CSC(c1ccccc1)c1ccccc1)N/N=C/c1cccc(Cl)c1 :: 39.6 µM
CN=C(NC#N)NCCSCc1nc[nH]c1C :: > 100 µM
COc1ccc2c3c(n(Cc4ccccc4)c(=O)c2c1)-c1cc(OC)c(OC)cc1C3C (stereo not given) :: > 100 µM
Cc1cnc(/C=N\NC(N)=S)c2cccc(N)c12 :: > 100 µM
COC1CCC(O)C(/C=C/[N+](=O)[O-])C1 (stereo not given) :: 4.69 µM

Query: Field request: TGI | item: O=C1N(c2ccccc2)C(=O)C2(SC=NN2Cc2ccccc2)N1c1ccccc1 (stereo not given)
Response: > 100 µM

Query: Please answer likewise for COc1cnc2c(c1)C(=O)c1c-2n(CCCN2CCC(O)CC2)c(=O)c2cc(F)ccc12
Response: 1.16 µM
